MEASURED TARGET: Flpin-293-PDE4B2 cells (Homo sapiens)
Sequence (Q07343 1-564 isoform Q07343-2): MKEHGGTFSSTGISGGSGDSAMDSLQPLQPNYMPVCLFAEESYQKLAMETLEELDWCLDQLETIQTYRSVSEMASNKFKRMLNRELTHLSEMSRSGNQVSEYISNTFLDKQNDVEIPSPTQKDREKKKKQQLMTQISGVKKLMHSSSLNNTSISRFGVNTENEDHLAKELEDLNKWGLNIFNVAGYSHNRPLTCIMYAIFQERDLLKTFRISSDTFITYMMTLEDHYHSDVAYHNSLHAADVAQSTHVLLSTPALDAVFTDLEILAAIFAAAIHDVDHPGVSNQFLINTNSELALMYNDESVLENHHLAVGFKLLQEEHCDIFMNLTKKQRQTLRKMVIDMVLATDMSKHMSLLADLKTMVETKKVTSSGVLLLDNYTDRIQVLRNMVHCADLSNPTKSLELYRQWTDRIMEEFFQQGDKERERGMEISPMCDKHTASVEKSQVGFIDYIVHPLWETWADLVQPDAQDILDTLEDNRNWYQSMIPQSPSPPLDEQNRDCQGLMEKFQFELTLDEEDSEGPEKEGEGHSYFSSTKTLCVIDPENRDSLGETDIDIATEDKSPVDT
TEST NAME: cell-based
CONDITION INFO: read-out: Cell Inhibition % @100 nM, 100 nM, Flpin-293-PDE4B2 cells
READOUT: inhibition at 0.1 µM (%)
Reply numerically in %, unit not repeated.

Data request, read-out inhibition at 0.1 µM, for [O-][S+]1CCc2nc(N3CCc4c(c(NCCO)nc5cc(Cl)ccc45)C3)nc(NC3(CO)CCC3)c21 (stereo not drawn) [Compound 103]
95.4

Data request, read-out inhibition at 0.1 µM, for [O-][S+]1CCc2nc(N3CCc4cccc(Cl)c4C3)nc(NC3(CO)CCC3)c21 (stereo not drawn) [Compound 21]
79.2

Data request, read-out inhibition at 0.1 µM, for COC[C@@H]1CCCN1c1ccc2c(c1)CCN(c1nc3c(c(NC4(CO)CCC4)n1)[S+]([O-])CC3)C2 (stereo partly drawn) [Compound 147]
94.4

Data request, read-out inhibition at 0.1 µM, for O=S1(=O)CCC(Nc2nc(N3CCc4cc(N5CCCC5)ccc4C3)nc3c2[S+]([O-])CC3)CC1 (stereo not drawn) [Compound 187]
101

Data request, read-out inhibition at 0.1 µM, for CO[C@H]1CCN(c2ccc3c(c2)CCN(c2nc4c(c(NC5(CO)CCC5)n2)[S+]([O-])CC4)C3)C1 (stereo partly drawn) [Compound 151]
99.1

Data request, read-out inhibition at 0.1 µM, for Cn1cc(Nc2nc(N3CCc4cc(Cl)ccc4C3)nc3c2[S+]([O-])CC3)cn1 (stereo not drawn) [Compound 141]
96

Data request, read-out inhibition at 0.1 µM, for O=S1(=O)C[C@H]2C[C@@H]1CN2c1ccc2c(c1)CCN(c1nc3c(c(NC4(CO)CCC4)n1)[S+]([O-])CC3)C2 (stereo partly drawn) [Compound 163]
96.7

Data request, read-out inhibition at 0.1 µM, for [O-][S+]1CCc2nc(N3CC[C@H]4c5cnc(Cl)cc5OC[C@@H]4C3)nc(NC3(CO)CCC3)c21 (stereo partly drawn) [Compound 117]
61.6

Data request, read-out inhibition at 0.1 µM, for CN1C[C@@H](Nc2nc(N3CCc4cc(N5CCCC5)ccc4C3)nc3c2[S+]([O-])CC3)CCC1=O (stereo partly drawn) [Compound 185]
101
